Values were extracted from patent US9550811B2.

Test system: HLA-A1
Experiment: REVEAL binding assay
Conditions: score as percentage of the signal generated by the positive control peptide
property_name: REVEAL binding score, HLA-type A1 (%)
Answers are plain numbers, in %.

>>> numeric_value("IRVIAHGLR")
15.82
>>> numeric_value("IPLVGAPLG")
13.28

Kindly give each listed record's REVEAL binding score, HLA-type A1.
1. RLGVRATRK
2. NYATGNLPG
3. LMGYIPLVG
4. SRNLGKVID
5. GGQIVGGVY
6. ATGNLPGCS
7. GGQIIGGNY
8. QIVGGVYLL

1. 20.39
2. 11.16
3. 14.17
4. 15.30
5. 13.97
6. 7.13
7. 24.04
8. 20.25

* * *

Tested on: HLA-B35
Assay: REVEAL binding assay
Conditions: score as percentage of the signal generated by the positive control peptide
Where no end group is shown, it is not given here. [ ]: non-standard residue; d: D form. Cit = NC(=O)NCCC[C@H](N)C(=O)O; Nle = CCCC[C@H](N)C(=O)O
property_name: REVEAL binding score, HLA-type B35 (%)
One number for each entry, in %.

Here are 10 substances together with their reported answers.
>>> numeric_value("VGGVYLLPR")
4.02
>>> numeric_value("IVGGVYLLP")
2.68
>>> numeric_value("NIPGSTYSL")
4.71
>>> numeric_value("ARALAHGVR")
2.45
>>> numeric_value("GGQIVGGVY")
0.54
>>> numeric_value("RVIAHGLRL")
1.43
>>> numeric_value("IRVIAHGLR")
0.66
>>> numeric_value("[Nle]GYIPLIGA")
5.89
>>> numeric_value("YLPAVGAPI")
2.03
>>> numeric_value("GQIVGGVYL")
3.24

Kindly give each listed record's REVEAL binding score, HLA-type B35.
1. VIRVIAHGL
2. GKVIDTLTC
3. P[Cit]IGVRAT[Cit]
4. QIIGGNYLI
5. TFSIYLIVS
6. NLGRVIETL
7. [Cit]IGVRAT[Cit]R

1. 2.51
2. 3.11
3. 2.45
4. 8.99
5. 2.48
6. 2.82
7. 8.51

* * *

Test system: HLA-A29
Assay: REVEAL binding assay
Details: score as percentage of the signal generated by the positive control peptide
Where no end group is shown, it is not given here. [ ]: non-standard residue; d: D form. Cit = NC(=O)NCCC[C@H](N)C(=O)O; Nle = CCCC[C@H](N)C(=O)O
property_name: REVEAL binding score, HLA-type A29 (%)
Give bare numbers, in %.

Here are 5 substances together with their reported answers.
>>> numeric_value("P[Cit]IGVRAT[Cit]")
14.14
>>> numeric_value("EL[Nle]GYIPLI")
20.93
>>> numeric_value("YVTGNIPGS")
10.29
>>> numeric_value("ARALAHGVR")
31.96
>>> numeric_value("IIGGNYLIP")
13.88

Kindly give each listed record's REVEAL binding score, HLA-type A29.
1. IRNLGRVIE
2. GQIIGGNYL
3. GP[Cit]IGVRAT
4. VTGNIPGST
5. IVGGVYLLP
6. VARALAHGV
7. QIIGGNYLI

11.06
14.17
11.88
15.05
12.38
29.43
13.60

Kindly give each listed record's REVEAL binding score, HLA-type A29.
1. LGRVIETLT
2. YATGNLPGC
3. VIETLTSGF
4. NLGKVIDTL
5. DLMGYIPLV
6. KVIDTLTCG

12.31
18.82
13.07
10.67
25.64
13.16

Kindly give each listed record's REVEAL binding score, HLA-type A29.
1. QIVGGVYLL
2. GNIPGSTYS
3. IGGNYLIPR

13.36
24.38
14.85

* * *

Target: HLA-B27 (Homo sapiens, UniProt P01889, D138H/D201E/E176V/E204Q/G107R/H137Y/K202T/N104T/N87E/Q56L/Q94K/R106L/R155S/R180L/S101D/S121N/S48T/Y140D/Y33H/Y91C)
Test: REVEAL binding assay
Conditions: score as percentage of the signal generated by the positive control peptide
Where no end group is shown, it is not given here. [ ]: non-standard residue; d: D form. Cit = NC(=O)NCCC[C@H](N)C(=O)O; Nle = CCCC[C@H](N)C(=O)O
property_name: REVEAL binding score, HLA-type B27 (%)
Numbers only, in %.

Here are 4 substances together with their reported answers.
>>> numeric_value("ITFSIYLIV")
4.79
>>> numeric_value("PRLGVRATR")
0.86
>>> numeric_value("[Cit]IGVRAT[Cit]R")
0.86
>>> numeric_value("RNLGRVIET")
0.91

Kindly give each listed record's REVEAL binding score, HLA-type B27.
1. LGRVIETLT
2. YLPAVGAPI
3. GGQIVGGVY
4. NIPGSTYSL
5. GITFSIYLI
6. IGGNYLIPR
7. [Nle]GYIPLIGA
8. LPAVGAPIG

2.54
0.51
0.66
2.29
3.29
0.82
1.42
0.49

Kindly give each listed record's REVEAL binding score, HLA-type B27.
1. ADLMGYIPL
2. TGNIPGSTY
3. YVTGNIPGS
4. TFSIYLIVS
5. GQIIGGNYL
6. GNIPGSTYS
7. GP[Cit]IGVRAT
8. IPLVGAPLG

1: 1.01; 2: 1.98; 3: 1.98; 4: 1.49; 5: 0.64; 6: 1.58; 7: 0.59; 8: 0.35

Kindly give each listed record's REVEAL binding score, HLA-type B27.
1. GYLPAVGAP
2. MGYIPLVGA
3. L[Nle]GYIPLIG
4. VIRVIAHGL
5. QIIGGNYLI

0.73
0.83
0.73
1.16
0.91

* * *

Test system: HLA-A24
Test: REVEAL binding assay
Conditions: score as percentage of the signal generated by the positive control peptide
Where no end group is shown, it is not given here. [ ]: non-standard residue; d: D form. Cit = NC(=O)NCCC[C@H](N)C(=O)O
Mark rule met for REVEAL binding score, HLA-type A24 under 0.6%, rule not met if at or over.

>>> label_class("GQIVGGVYL")
"rule met"
>>> label_class("VARALAHGV")
"rule met"

Take the substance YIPLVGAPL and say whether its REVEAL binding score, HLA-type A24 is less than 0.6%. rule not met

Take the substance NLPGCSFSI and say whether its REVEAL binding score, HLA-type A24 is less than 0.6%. rule not met

Take the substance QIIGGNYLI and say whether its REVEAL binding score, HLA-type A24 is less than 0.6%. rule not met

Take the substance GQIIGGNYL and say whether its REVEAL binding score, HLA-type A24 is less than 0.6%. rule met

Take the substance TGNIPGSTY and say whether its REVEAL binding score, HLA-type A24 is less than 0.6%. rule not met

Take the substance GKVIDTLTC and say whether its REVEAL binding score, HLA-type A24 is less than 0.6%. rule met

Take the substance YVTGNIPGS and say whether its REVEAL binding score, HLA-type A24 is less than 0.6%. rule not met

Take the substance GYIPLVGAP and say whether its REVEAL binding score, HLA-type A24 is less than 0.6%. rule not met

Take the substance [Cit]IGVRAT[Cit]R and say whether its REVEAL binding score, HLA-type A24 is less than 0.6%. rule met

* * *

For each entry below, report its REVEAL binding score, HLA-type A1 value.
System: HLA-A1
Experiment: REVEAL binding assay
Details: score as percentage of the signal generated by the positive control peptide
Where no end group is shown, it is not given here. [ ]: non-standard residue; d: D form. Nle = CCCC[C@H](N)C(=O)O
Answers are plain numbers, in %.

>>> numeric_value("TGNIPGSTY")
10.58
>>> numeric_value("GITFSIYLI")
9.61
>>> numeric_value("TFSIYLIVS")
9.93
>>> numeric_value("GQIVGGVYL")
15.07
>>> numeric_value("VTGNIPGST")
16.18

Kindly give each listed record's REVEAL binding score, HLA-type A1.
1. L[Nle]GYIPLIG
2. NLPGCSFSI
3. MGYIPLVGA
4. ADLMGYIPL
5. RVIETLTSG
6. GNIPGSTYS

1. 14.33
2. 13.15
3. 11.34
4. 31.05
5. 11.61
6. 7.54

Kindly give each listed record's REVEAL binding score, HLA-type A1.
1. NLGKVIDTL
2. ITFSIYLIV
3. ARALAHGVR
4. GYLPAVGAP

[18.14, 9.89, 20.62, 12.04]
